tested on: TIE2; construct: gene TEK; settings: concentration: 1 μM, replicates: in singlicate; n = 1;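 note: KINOMEscan kinase panel screen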
This listing pairs compounds with measured %Inh.
State just the number; it will be interpreted in %.

INSERT INTO results (given_smiles, parameter, reported) VALUES
  ('Fc1cccc(COc2ccc(Nc3ncnc4nn5ccccc5c34)cc2Cl)c1', '%Inh', 0),
  ('Nc1nc(-c2ccc3c(N)n[nH]c3c2)cc(N2CCC[C@@H](C(=O)Nc3ccccc3)C2)n1.O=C(O)C(F)(F)F.O=C(O)C(F)(F)F', '%Inh', 0),
  ('N#Cc1ccc(Oc2ccc(Nc3ncnc4cc[nH]c34)cc2Cl)cc1', '%Inh', 20);

Name the recorded %Inh of Cl.c1ccc(Cn2ccc3cc(Nc4ncnc5ccccc45)ccc32)cc1 , assay system TIE2.
0

Name the recorded %Inh of CC(=O)Nc1n[nH]c2ncc(-c3ccccc3)cc12 , assay system TIE2.
21

* * *

system: S6K1; conditions: concentration: 1 μM, replicates: in singlicate; n = 1
This listing pairs molecules with measured %Inh.
State just the number; it will be interpreted in %.

As a guide, the following entries are already answered.
INSERT INTO results (molecule, assay_target, reading_unit, reported) VALUES
  ('Fc1ccc(Nc2nccc(-c3c(-c4ccc(Cl)cc4)nn4ncccc34)n2)cc1F', 'S6K1', '%', 4),
  ('COc1ccc(Nc2nccc(N3CCC(NC(=O)c4cccc(NC(C)=O)c4)C3)n2)cc1 (stereo not shown)', 'S6K1', '%', 0);

Name the recorded %Inh of Cc1cccc(-c2nc(Nc3ccc4[nH]nnc4c3)c3ccccc3n2)n1 , assay system S6K1.
0

Name the recorded %Inh of Cl.Cn1ccc(-c2cccc(Nc3ccnc4cc(-c5nccs5)ccc34)c2)n1 , assay system S6K1.
0

Name the recorded %Inh of Nc1nccc2scc(-c3ccc4c(c3)CCN4C(=O)Cc3cc(F)ccc3F)c12 , assay system S6K1.
0

Name the recorded %Inh of C[C@@H]1CCN(C(=O)CO)C[C@@H]1N(C)c1ncnc2[nH]ccc12 , assay system S6K1.
1

Name the recorded %Inh of Nc1nc(-c2ccc3c(N)n[nH]c3c2)cc(N2CCCCC2)n1 , assay system S6K1.
0

Name the recorded %Inh of CCn1c(-c2ccncc2)nc2cnccc21 , assay system S6K1.
32

Name the recorded %Inh of O=C(NCCCN1CCCC1=O)c1cnc(NCc2cc(Cl)ccc2Cl)nc1NC1CCNCC1 , assay system S6K1.
26

Name the recorded %Inh of N#Cc1ccc(Oc2ccc(Nc3ncnc4cc[nH]c34)cc2Cl)cc1 , assay system S6K1.
10

Name the recorded %Inh of CCC(CC)(CC)n1cnc2c(N)ncnc21 , assay system S6K1.
16

Name the recorded %Inh of CSc1nn2c(=O)cc(N3CCOCC3)nc2n1Cc1cccc(Cl)c1Cl , assay system S6K1.
0

Name the recorded %Inh of CN1CCC(n2cnc(-c3ccc(F)cc3)c2-c2ccnc(NC3CCNCC3)n2)CC1 , assay system S6K1.
25

* * *

system: PRKD2; conditions: concentration: 1 μM, replicates: in singlicate; n = 1
Binary call on %Inh with cut-off 6%: strictly below means Criterion met, and equality or higher means Criterion not met.

Reference set (8 entries):
INSERT INTO results (compound, assay_target, category_label) VALUES
  ('O=C(CCO)NCCn1ccc2ncnc(Nc3ccc(Oc4cccc(C(F)(F)F)c4)c(Cl)c3)c21', 'PRKD2', 'Criterion met'),
  ('O=C(Nc1ccccc1F)NC1CCN(c2ccnc(Nc3ccc(F)cc3)n2)C1 (centres unmarked)', 'PRKD2', 'Criterion met'),
  ('C[C@H]1CC[C@@H](C(=O)Nc2ccccc2)CN1c1cc(-c2ccc3c(N)n[nH]c3c2)nc(N)n1', 'PRKD2', 'Criterion met'),
  ('CNc1nccc(-c2c(-c3ccc(F)cc3)ncn2C2CCN(C)CC2)n1', 'PRKD2', 'Criterion not met'),
  ('Nc1nc(-c2ccccn2)c(-c2ccnc3ccccc23)s1', 'PRKD2', 'Criterion not met'),
  ('CCCc1ccc(S(=O)(=O)NC2CCN(c3ccnc(Nc4ccc(OC)cc4)n3)C2)cc1 (centres unmarked)', 'PRKD2', 'Criterion met'),
  ('O=C(Nc1n[nH]c2nc(-c3ccco3)c(Br)cc12)c1ccc(CN2CCCC2)cc1.O=C(O)[C@H](O)[C@@H](O)C(=O)O', 'PRKD2', 'Criterion not met'),
  ('COc1cc2c(Nc3cccc(NC(=O)c4ccccc4)c3)ncnc2cc1OCCCN1CCOCC1', 'PRKD2', 'Criterion met');

Please let me know if CS(=O)(=O)CCNCc1ccc(-c2ccc3ncnc(Nc4ccc(OCc5ccccc5)c(Cl)c4)c3c2)o1.Cl shows %Inh below 6%.
Criterion not met

Please let me know if Clc1cccc(-c2nc(Nc3ccncc3)c3ccccc3n2)c1 shows %Inh below 6%.
Criterion not met

Please let me know if Oc1ccc2ncnc(Nc3ccc(OCc4ccccc4)cc3)c2c1 shows %Inh below 6%.
Criterion met

Please let me know if CCn1c(-c2ccncc2)nc2cnccc21 shows %Inh below 6%.
Criterion met

Please let me know if Cn1cc(-c2ccc3c(c2)CCN3C(=O)Cc2cccc(C(F)(F)F)c2)c2c(N)ncnc21 shows %Inh below 6%.
Criterion met

Please let me know if CC(C)(C)OC(=O)NC1CCCN(c2cc(-c3ccc4c(N)n[nH]c4c3)nc(N)n2)C1 (centres unmarked) shows %Inh below 6%.
Criterion not met

Please let me know if COc1ccc(-c2oc3ncnc(N)c3c2-c2ccc(OC)cc2)cc1 shows %Inh below 6%.
Criterion met

Please let me know if Cl.Fc1ccccc1COc1ccc(Nc2ncnc3ccc(-c4nnc(C(F)(F)F)o4)cc23)cc1Cl shows %Inh below 6%.
Criterion met

Please let me know if Cl.Cn1ccc(-c2cccc(Nc3ccnc4cc(-c5nccs5)ccc34)c2)n1 shows %Inh below 6%.
Criterion met

Please let me know if Cc1ccc(O)cc1Nc1cc(C(F)(F)F)nc2ccc(-c3ccncc3)cc12 shows %Inh below 6%.
Criterion met

* * *

This listing pairs molecules with measured %Inh.
tested on: HUNK; settings: concentration: 1 μM, replicates: in singlicate; n = 1
State just the number; it will be interpreted in %.

As a guide, the following entries are already answered.
INSERT INTO assay_data (molecule, assay_target, parameter, reported) VALUES
  ('Clc1ccc(-c2cc(-c3c[nH]nc3-c3ccccn3)ccn2)cc1', 'HUNK', '%Inh', 6),
  ('Clc1cc(Nc2ncnc3cc[nH]c23)ccc1OCc1ccccn1', 'HUNK', '%Inh', 13);

Please look at this molecule and report its %Inh: COc1ccc(NC(=O)c2ccc(-c3cc(-c4nnc(C)o4)ccc3C)cc2)cc1
3

Please look at this molecule and report its %Inh: Clc1cccc(-c2nc(Nc3ccncc3)c3ccccc3n2)c1
53

Please look at this molecule and report its %Inh: Cc1cccc(-c2nc(Nc3ccc4[nH]nnc4c3)c3ccccc3n2)n1
37

Please look at this molecule and report its %Inh: Cc1ccc(NC(=O)c2cccc(C#N)c2)cc1-c1ccc(C(=O)Nc2ccncc2)cc1
0

Please look at this molecule and report its %Inh: Oc1ccc2ncnc(Nc3ccc(OCc4ccccc4)cc3)c2c1
8

Please look at this molecule and report its %Inh: Cl.Cl.c1ccc(-c2cc3ccncc3cc2OC2CCNCC2)cc1
27

Please look at this molecule and report its %Inh: Fc1cccc(COc2ccc(Nc3ncnc4nn5ccccc5c34)cc2Cl)c1
28

Please look at this molecule and report its %Inh: COc1cc2ncnc(Nc3ccc(OCc4ccccc4Br)c(Cl)c3)c2cc1OC.Cl
11

* * *

system: PKN2; settings: concentration: 1 μM, replicates: in singlicate; n = 1
This listing pairs compounds with measured %Inh.
State just the number; it will be interpreted in %.

As a guide, the following entries are already answered.
INSERT INTO results (compound, parameter, reported) VALUES
  ('CC(C)(C)c1ccc(-n2cnc3c(N)ncnc32)cc1', '%Inh', 11),
  ('Fc1ccc(-c2ncn(CCCNCc3ccccc3)c2-c2ccncc2)cc1', '%Inh', 1),
  ('Oc1ccc2ncnc(Nc3ccc(OCc4ccccc4)cc3)c2c1', '%Inh', 0),
  ('CS(=O)(=O)CCNCc1nc(-c2ccc3ncnc(Nc4ccc(OCc5cccc(F)c5)c(Cl)c4)c3c2)cs1.Cl', '%Inh', 0),
  ('FC(F)(F)c1cc(Nc2nccc(-c3c(-c4ccc(Cl)cc4)nn4ncccc34)n2)ccc1Cl', '%Inh', 0);

Please look at this compound and report its %Inh: Cl.O=S(=O)(c1cccc(F)c1)c1ccc(Nc2ncnc3cc(Br)sc23)cc1Cl
0

Please look at this compound and report its %Inh: CSc1nn2c(=O)cc(N3CCOCC3)nc2n1Cc1cccc(Cl)c1Cl
0

* * *

tested on: MEK1; construct: gene MAP2K1; settings: concentration: 1 μM, replicates: in singlicate; n = 1
parameter: %Inh
Hey, just the number and the unit after it is fine.

As a guide, the following entries are already answered.
INSERT INTO assay_data (compound, reported) VALUES
  ('COc1cc2c(Nc3cccc(NC(=O)c4ccccc4)c3)ncnc2cc1OCCCN1CCOCC1', '0%'),
  ('CN1CCC(n2cnc(-c3ccc(F)cc3)c2-c2ccnc(NC3CCNCC3)n2)CC1', '0%'),
  ('FC(F)(F)c1ccc(-c2cc(-c3c[nH]nc3-c3ccccn3)ccn2)cc1', '5%');

Please look at this compound and report its %Inh: COc1ccc(Nc2nccc(N3CCC(NC(=O)Nc4ccc5c(c4)OCO5)C3)n2)cc1 (stereo not shown)
0%

Cited source for all entries: paper PMC5540273
